System: DAF-12 nuclear receptor (Haemonchus contortus)
Assay: hcDAF-12 driven luciferase reporter activation – cell-based, luminescence, HEK293, lit1-tk-luc reporter, primary screen (AID 652067);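 also: 100% = response to 3 µM Δ7-dafachronic acid high control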
Details: HEK293 hcDAF-12 lit1-tk-luc reporter, at 6.8 µM, 0% DMSO, 100% Δ7-dafachronic acid
The campaign covered roughly 370,000 compounds. About 5,400 (1.5%) were called active.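 The calls were made as follows: active = activation above the mean of all tested compounds plus 3 SD (cut at about 5.5% in these data); inactive = the rest.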 This excerpt belongs to a sample that is enriched for actives.
Select the correct class. Options are active, inactive and nothing else.

| compound | qualitative.label |
| --- | --- |
| CCn1c(SC)nc(O)c(C(c2ccc(OC)c(O)c2)c2c(O)nc(SC)n(CC)c2=O)c1=O | inactive |

[ask] Which result was noted for this compound in the test: O=C(Nc1ccc(Cl)cc1)C1c2cccc[n+]2CC(=O)N1Cc1ccc2c(c1)OCO2 (stereo not given)
[reply] active

[ask] Could you please tell me the result logged for CCCOc1ccc(NC(=O)CC2C(=O)N(C)C(=S)N2Cc2ccc3c(c2)OCO3)cc1 (stereo not given) in this assay?
[reply] inactive

[ask] Entry `N#Cc1c(C(F)(F)F)cc(-c2ccc(Cl)cc2)nc1SCC(=O)O` : call = ?
[reply] active

[ask] What outcome does the record of this test show for O=C(Nc1ccc2c(c1)OCCO2)C1c2ccccc2OCC(=O)N1Cc1ccccn1 (stereo not given) ?
[reply] inactive

====

# Lookup of reported activation keyed by entry
Tested on: DAF-12 nuclear receptor (Haemonchus contortus)
Test: hcDAF-12 driven luciferase reporter activation – cell-based, luminescence, HEK293, lit1-tk-luc reporter, primary screen (AID 652067);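 also: 100% = response to 3 µM Δ7-dafachronic acid high control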
Settings: HEK293 hcDAF-12 lit1-tk-luc reporter, at 6.8 µM, hits give high values, 0% DMSO, 100% Δ7-dafachronic acid
Among all 370,000 compounds or so, about 5,400 (1.5%) were called active. Shown is part of a subset that was picked to be rich in actives.
Express the result in % but write the number alone.

| compound | activation (%) |
| --- | --- |
| Cc1cccc(NS(=O)(=O)c2cccc(C(=O)NNC(=O)c3ccccc3O)c2)c1 | -2.63 |

[ask] Please look at this compound and report its activation: `O=C(NNC(=O)c1cc(S(=O)(=O)N2CCCCC2)ccc1Cl)c1ccccc1O`
[reply] 1.49

[ask] Please report activation for the following compound: O=C(NCC1COc2ccccc2O1)c1ccc(NC(=O)c2cc(F)ccc2F)cc1 (stereo not given)
[reply] -4.01

[ask] Report activation for O=C(COC(=O)/C=C/c1ccc(Cl)cc1)NC1CCS(=O)(=O)C1 (stereo not given)
[reply] -0.16

[ask] Note down activation recorded for `COCCN1CCn2c(nc3cc(NS(C)(=O)=O)ccc32)C1`
[reply] 0.72

====

System: DAF-12 nuclear receptor (Haemonchus contortus)
Assay: hcDAF-12 driven luciferase reporter activation – cell-based, luminescence, HEK293, lit1-tk-luc reporter, primary screen (AID 652067);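 also: 100% = response to 3 µM Δ7-dafachronic acid high control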
Settings: HEK293 hcDAF-12 lit1-tk-luc reporter, at 6.8 µM, hits give high values, 0% DMSO, 100% Δ7-dafachronic acid
Hit rate of the full screen: of about 370,000 compounds, about 5,400 (1.5%) were called active. For the sample, actives were picked, then their nearest neighbours and some compounds at random.
measured.attribute: activation (%)
Field: numeric (%). Do not append units.

[ask] Give the value of activation reported for the following: `COc1cc(/C=C/C(=O)n2cnc3ccccc32)cc(OC)c1OC`
[reply] 0.33

[ask] Return activation (reported value) for this compound: `COC(=O)[C@H](CC(C)C)NS(=O)(=O)c1c(F)cccc1F`
[reply] 0.07

[ask] Please report the measured activation for `COc1ccc(-c2cc(-c3nnc(SCc4ccc([N+](=O)[O-])cc4)n3N)[nH]n2)cc1`
[reply] -4.71

[ask] Fill in activation for record `COc1ccccc1OCC(=O)OCc1cc(-c2ccco2)on1`
[reply] -2.08

[ask] Return activation for the following compound: `O=C(CSc1nnc(-c2ccccn2)n1-c1ccccc1)Nc1ccc2c(c1)OCO2`
[reply] -1.02

====

Tested on: DAF-12 nuclear receptor (Haemonchus contortus)
Assay: hcDAF-12 driven luciferase reporter activation – cell-based, luminescence, HEK293, lit1-tk-luc reporter, primary screen (AID 652067);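 also: 100% = response to 3 µM Δ7-dafachronic acid high control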
Conditions: HEK293 hcDAF-12 lit1-tk-luc reporter, at 6.8 µM, hits give high values, 0% DMSO, 100% Δ7-dafachronic acid
The campaign covered roughly 370,000 compounds. About 5,400 (1.5%) were called active. Shown is part of a subset that was picked to be rich in actives.
Items are presented alongside their recorded activation.
Numbers only; they are read as %.

| compound | system | test.value |
| --- | --- | --- |
| Cc1ccc(NC(=O)N2CCC(C(=O)NCc3ccc(F)cc3)CC2)cc1 | DAF-12 nuclear receptor (Haemonchus contortus) | -0.76 |
| COC(=O)[C@]1(C#N)CC(=O)N(CC2CCCCC2)[C@@H]1c1ccccc1 | DAF-12 nuclear receptor (Haemonchus contortus) | 0.64 |
| Nn1c(SCC(=O)N2c3ccccc3Sc3ccccc32)nnc1-c1n[nH]c2c1CCC2 | DAF-12 nuclear receptor (Haemonchus contortus) | -2.66 |

[ask] Name the recorded activation of the item `O=C(Nn1c(-c2ccc(Cl)cc2)nc2ccccc2c1=O)c1cccnc1Cl` in your answer.
[reply] 0.57

[ask] Quote activation reported for `CC1=NCCN1S(=O)(=O)c1ccc(Br)c(C)c1` please.
[reply] -1.01

[ask] Using known records, supply activation for `O=C(NCc1ccc(F)cc1)C1CCN(C(=O)Nc2ccc(F)cc2)CC1`
[reply] -1.57

====

Test system: DAF-12 nuclear receptor (Haemonchus contortus)
Assay: hcDAF-12 driven luciferase reporter activation – cell-based, luminescence, HEK293, lit1-tk-luc reporter, primary screen (AID 652067);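 also: 100% = response to 3 µM Δ7-dafachronic acid high control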
Conditions: HEK293 hcDAF-12 lit1-tk-luc reporter, at 6.8 µM, hits give high values, 0% DMSO, 100% Δ7-dafachronic acid
Screen size: about 370,000 compounds; about 5,400 (1.5%) were called active. Shown is part of a subset that was picked to be rich in actives.
measured.attribute: activation

| molecule | test.value |
| --- | --- |
| Cn1ncc([N+](=O)[O-])c1C(=O)Nc1cc(Cl)ccc1Cl | -1.09% (inactive) |
| CC(C)CNc1cccc2c1S(=O)(=O)N(Cc1cn(Cc3ccc(Cl)cc3)nn1)Cc1ccccc1O2 | -0.84% (inactive) |
| CC(=O)n1c(C=Nc2ccccc2)c(O)c2ccccc21 | 7.8% (active) |
| COc1ccc([C@H]2[C@H](C(C)=O)N3N=Cc4ccccc4C3C23C(=O)OC(C)(C)OC3=O)cc1 (stereo not given in full) | -0.72% (inactive) |

Could you now consider this next molecule?
[ask] Supply activation value. Item: `COc1cc2cc(CN(CCN3CCCC3)C(=O)Nc3ccccc3Cl)c(=O)[nH]c2cc1OC`
[reply] -0.2% (inactive)

====

Listing: activation of selected compounds
Test system: DAF-12 nuclear receptor (Haemonchus contortus)
Experiment: hcDAF-12 driven luciferase reporter activation – cell-based, luminescence, HEK293, lit1-tk-luc reporter, primary screen (AID 652067);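 also: 100% = response to 3 µM Δ7-dafachronic acid high control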
Conditions: HEK293 hcDAF-12 lit1-tk-luc reporter, at 6.8 µM, hits give high values, 0% DMSO, 100% Δ7-dafachronic acid
In all, about 370,000 compounds went through this assay and about 5,400 (1.5%) were called active. The list comes from a sample in which actives are over-represented; it also holds close analogues and randomly drawn compounds.
A number alone suffices; assume %.

Solved cases below.
| compound | activation, % |
| --- | --- |
| Cc1ccc(NC(=O)c2cc(C)nn2-c2ccccc2)c(C)c1 | -2.18 |
| Cc1cc(C)c2nc(NC(=O)C3CCCO3)sc2c1 (centres undefined) | 8.44 |

[ask] Read off the recorded activation for `COc1ccc(Cn2cc(CN3[C@@H](CC(C)C)COc4cc(Br)ccc4S3(=O)=O)nn2)cc1`
[reply] -0.96

[ask] Respond only with activation recorded for COc1ccc(CN2C(=O)N3Cc4cc(OC)ccc4C3CS2(=O)=O)cc1 (centres undefined)
[reply] -4.29

[ask] Could you please provide reported activation for `O=S1(=O)c2c(cccc2N2CCCC2)O[C@H](COCc2ccccc2)CN1C1CC1` ? Thanks!
[reply] -1.28

[ask] Tell me activation reported for `CCCCNC(=O)C[C@@H]1C(=O)N(CCc2ccc(Cl)cc2)C2=CCCC[C@]21C(=O)OCC`
[reply] -2.83

[ask] Check the records and state activation for `C[C@@H](CN1C2=NC[C@@H](Cc3ccccc3)N2C[C@H]1Cc1ccc(O)cc1)NC(=O)CCC1CCCCC1`
[reply] -1.42

[ask] Complete the entry with activation for Cn1c(=N)n(CC(O)c2ccccc2)c2ccccc21 (centres undefined)
[reply] 6.33

[ask] Answer with the recorded activation for the compound listed here: `O=C(CSc1nc2c(c(=O)[nH]1)CCCC2)N1CCCCC1`
[reply] 0.61

[ask] Give activation for the following compound: COc1ccc(C2CC(c3ccccc3)=NN2C(=O)c2ccc(Cl)c([N+](=O)[O-])c2)cc1 (centres undefined)
[reply] 0.35

[ask] // fetch activation given entry `O=C(Nc1cccc(F)c1)c1cc(-c2ccco2)nc2ccccc12`
[reply] 5.67

[ask] Quickly give me recorded activation for `CC(C)(C)c1ccc(C(=O)Nc2cc(Cl)c(Br)cc2C(=O)O)cc1`
[reply] 2.27

[ask] Look up activation of `Cc1ccc(NC(=O)c2cc([N+](=O)[O-])ccc2Cl)c(O)c1` and report it.
[reply] 6.38

[ask] Provide only the value of recorded activation for `Cc1cc(C)c2nc(N3CCC(C(=O)NCCN4CCOCC4)CC3)sc2c1`
[reply] 1.35

[ask] Report measured activation; entry is `COc1cccc(Cn2cc(COC(=O)Nc3ccc(F)cc3)nn2)c1`
[reply] -2.13

[ask] Dear colleague, please send me the reported activation for `O=C(O)c1ccccc1CSc1nc2ccccc2s1` when you can.
[reply] 8.09

[ask] Let me know recorded activation for `O=C(Nc1cccc(F)c1)c1coc(=O)c(Br)c1` , thanks.
[reply] 0.1

[ask] Please report activation for the following compound: `O=C(CSc1nc2sc3c(c2c(=O)n1-c1ccccc1)CCCC3)NN=Cc1ccc(OCc2ccccc2)cc1`
[reply] -1.69

[ask] Complete the entry with activation for `O=C(O)CN1c2cccc3cccc(c23)S1(=O)=O`
[reply] 7.97

[ask] Return value of activation for input `CC(C)CN(CC(C)C)C(=O)CN1c2cccc3cccc(c23)S1(=O)=O` , no commentary.
[reply] 0.46

[ask] Please give measured activation of the following entry: `Cc1cc(O)c(C(=O)/C=C/c2c(F)c(F)c(F)c(F)c2F)c(=O)o1`
[reply] 8.11

[ask] Please supply the value of reported activation for the item `COC(=O)c1ccccc1NC(=O)CSc1n[nH]c(-c2ccncc2)n1`
[reply] 5.75

[ask] // fetch activation given entry `O=C(O)CSc1nccc2ccccc12`
[reply] 0.9
